Myosin-IIIb (Homo sapiens): reported pIC50 for various compounds.
Sequence (Q8WXR4 whole entry): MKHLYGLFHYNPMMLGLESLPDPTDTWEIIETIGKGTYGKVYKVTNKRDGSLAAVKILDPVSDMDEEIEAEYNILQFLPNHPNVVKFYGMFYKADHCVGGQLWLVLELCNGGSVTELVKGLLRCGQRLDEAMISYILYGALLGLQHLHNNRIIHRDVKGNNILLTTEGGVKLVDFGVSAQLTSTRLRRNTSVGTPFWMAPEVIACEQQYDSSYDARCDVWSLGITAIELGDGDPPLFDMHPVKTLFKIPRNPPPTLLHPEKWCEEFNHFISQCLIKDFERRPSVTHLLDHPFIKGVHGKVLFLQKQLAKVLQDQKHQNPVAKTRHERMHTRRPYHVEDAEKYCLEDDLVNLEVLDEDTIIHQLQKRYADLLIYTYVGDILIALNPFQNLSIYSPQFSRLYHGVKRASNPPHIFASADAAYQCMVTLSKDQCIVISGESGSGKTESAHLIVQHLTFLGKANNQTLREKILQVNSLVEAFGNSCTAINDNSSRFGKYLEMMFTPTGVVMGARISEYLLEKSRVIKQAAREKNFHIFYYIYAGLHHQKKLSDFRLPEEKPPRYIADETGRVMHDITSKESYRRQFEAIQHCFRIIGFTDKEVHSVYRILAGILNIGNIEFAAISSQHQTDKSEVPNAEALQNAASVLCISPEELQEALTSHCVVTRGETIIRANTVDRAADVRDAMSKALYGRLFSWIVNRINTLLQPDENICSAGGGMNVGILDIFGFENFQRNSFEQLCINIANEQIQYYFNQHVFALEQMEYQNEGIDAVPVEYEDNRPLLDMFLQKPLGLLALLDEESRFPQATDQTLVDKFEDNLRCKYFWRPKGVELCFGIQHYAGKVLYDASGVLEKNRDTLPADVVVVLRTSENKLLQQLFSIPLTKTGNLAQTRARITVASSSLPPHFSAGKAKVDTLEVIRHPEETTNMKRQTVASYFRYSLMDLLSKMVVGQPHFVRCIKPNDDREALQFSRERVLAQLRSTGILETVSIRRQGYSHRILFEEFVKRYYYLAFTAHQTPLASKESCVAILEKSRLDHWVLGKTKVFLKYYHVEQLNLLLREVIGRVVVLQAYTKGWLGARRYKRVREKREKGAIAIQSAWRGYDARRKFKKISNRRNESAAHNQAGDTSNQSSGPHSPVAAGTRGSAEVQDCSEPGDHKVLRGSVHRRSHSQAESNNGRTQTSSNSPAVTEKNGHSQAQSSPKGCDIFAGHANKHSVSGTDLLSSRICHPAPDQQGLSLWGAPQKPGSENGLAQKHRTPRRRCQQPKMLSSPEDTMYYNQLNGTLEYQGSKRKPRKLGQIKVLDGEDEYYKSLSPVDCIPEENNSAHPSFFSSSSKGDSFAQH
Notebook: values listed as pIC50 are -log10 of the concentration (mol/L).

Item: `CN1C(=O)[C@@H](N2CCc3cn(Cc4ccccc4)nc3C2=O)COc2ccccc21` | System: Myosin-IIIb (Homo sapiens) | pIC50: 6.00

Next:
Item: CN1C(=O)[C@@H](N2CCc3cn(CC4CCS(=O)(=O)CC4)nc3C2=O)COc2ccccc21 [TP-030n] | System: Myosin-IIIb (Homo sapiens) | pIC50: 6.00

---

- TARGET_OR_TEST_SYSTEM: Serine/threonine-protein kinase LATS2 (Homo sapiens)
- Sequence (Q9NRM7 whole entry): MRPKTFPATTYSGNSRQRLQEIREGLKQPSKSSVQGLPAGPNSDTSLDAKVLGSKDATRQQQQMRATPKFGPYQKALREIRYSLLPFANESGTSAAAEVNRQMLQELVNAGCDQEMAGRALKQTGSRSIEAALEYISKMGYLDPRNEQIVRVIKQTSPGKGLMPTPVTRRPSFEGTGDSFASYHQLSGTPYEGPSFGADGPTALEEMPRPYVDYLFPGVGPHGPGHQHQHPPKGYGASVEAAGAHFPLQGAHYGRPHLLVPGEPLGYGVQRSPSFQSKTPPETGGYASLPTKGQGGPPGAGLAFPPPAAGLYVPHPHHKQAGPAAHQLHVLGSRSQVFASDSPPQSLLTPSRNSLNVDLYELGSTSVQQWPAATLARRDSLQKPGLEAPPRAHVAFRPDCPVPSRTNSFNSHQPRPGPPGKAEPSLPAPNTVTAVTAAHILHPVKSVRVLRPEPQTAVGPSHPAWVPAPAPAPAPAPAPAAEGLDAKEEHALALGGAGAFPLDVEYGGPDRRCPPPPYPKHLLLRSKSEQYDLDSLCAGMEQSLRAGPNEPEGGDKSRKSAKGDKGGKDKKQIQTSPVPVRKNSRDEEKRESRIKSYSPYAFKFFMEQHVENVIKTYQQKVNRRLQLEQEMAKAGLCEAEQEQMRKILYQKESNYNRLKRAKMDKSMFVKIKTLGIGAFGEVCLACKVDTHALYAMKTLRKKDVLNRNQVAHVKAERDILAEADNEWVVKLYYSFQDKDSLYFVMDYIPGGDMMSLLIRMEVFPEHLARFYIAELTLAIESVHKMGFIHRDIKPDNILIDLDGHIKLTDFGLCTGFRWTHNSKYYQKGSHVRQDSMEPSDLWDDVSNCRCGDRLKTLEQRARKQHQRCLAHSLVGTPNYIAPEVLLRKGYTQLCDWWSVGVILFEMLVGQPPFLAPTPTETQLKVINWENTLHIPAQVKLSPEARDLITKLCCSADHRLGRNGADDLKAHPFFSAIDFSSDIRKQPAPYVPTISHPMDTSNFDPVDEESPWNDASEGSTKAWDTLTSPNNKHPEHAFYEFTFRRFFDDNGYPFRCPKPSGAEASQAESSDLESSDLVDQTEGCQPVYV
RECORDED_ENDPOINT: pIC50
Notebook: values listed as pIC50 are -log10 of the concentration (mol/L).

The measured pIC50 associated with CN1C(=O)[C@@H](N2CCc3cn(CC4CCS(=O)(=O)CC4)nc3C2=O)COc2ccccc21 [TP-030n] reads 6.00

Next:
The measured pIC50 associated with `CN1C(=O)[C@@H](N2CCc3cn(Cc4ccccc4)nc3C2=O)COc2ccccc21` reads 6.00
